test system: P. aeruginosa strain CFS-1292; assay: MIC at pH 6, pH 7 and pH 8; type: cell-based, Pseudomonas aeruginosa; settings: CAA media (pH 7)
Provide the reported MIC of each item.
Answers are plain numbers, in µg/mL.

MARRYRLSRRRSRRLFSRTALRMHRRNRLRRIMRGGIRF [Chp4] :: 0.5

# batch size: 2; output MIC per entry
1. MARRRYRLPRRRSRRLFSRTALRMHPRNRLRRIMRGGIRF [Chp6]
2. MARSRRRMSKRSSRRSFRKYAKTHKKNFKARSMRGGIRL [Ecp3]

Solution:
1
1

----------
Provide the reported MIC of each item.
System: P. aeruginosa strain CFS-1292
Test: MIC in presence of divalent cations (calcium chloride, magnesium sulfate)
Type: cell-based, Pseudomonas aeruginosa
Details: CAA media + + 1 mM MgSO4
Protocol: Next, Chp peptides were evaluated in the presence of different divalent cations. […]; (2) in the presence of 2 mM calcium chloride alone; (3) in the presence of 1 mM magnesium sulfate alone; and (4) in the presence of both 2 mM calcium chloride and 1 mM magnesium sulfate. […]
One number for each entry, in µg/mL.

Some entries whose results are on file:
MARSRRRMSKRSSRRSFRKYAKTHKRNFKARSMRGGIRL [Ecp1] :: 1
MVRRRRLRRRISRRIFRRTVARVGRRRRSFRGGIRF [Chp1] :: 1

Next, consider the following sequence.
Problem: Return reported MIC; argument: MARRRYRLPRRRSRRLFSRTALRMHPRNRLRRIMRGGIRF [Chp6]
Solution: 1

----------
Provide the reported 45 hr MIC of each item.
system: M. smegmatis; experiment: 45 hr MIC against M. smegmatis (NTM), Mueller Hinton broth; assay type: cell-based, Mycobacterium smegmatis; details: M. smegmatis MC^2 155, Run #1
Give bare numbers, in µg/mL.

Some entries whose results are on file:
MRRKVKNTKRHQWRLTHSARSIKRANIMPSNPRGGRRF [Spi2] :: 4
MRRPRKMNYKKSKRMFSRTAARTHRKNSLRGSRPMRGGIRL [Gkh1] :: 4
MRRKKMSRGKSKKLFRRTAKRVHRKNLRARPMRGGIRM [AVQ206] :: 4

# batch size: 2; output 45 hr MIC per entry
1. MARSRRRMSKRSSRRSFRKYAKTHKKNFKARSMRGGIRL [Ecp3]
2. MAGKKMVSKGKDRQIFRKTADRTKKMNVRPLLYRGGIRL [Chp12]

Solution:
4
64

# batch size: 8; output 45 hr MIC per entry
1. MRRRRLSRRTSRRFFRKGLKVRRRNLRARPMRGGFRI [Unp2]
2. MKRRKLSKKKSRKIFTRGAVNVKKRNLRARPMRGGFRI [Chp10]
3. MAYRGFKTSRVVKHRVRRRWFNHRRRYR [Spi1]
4. MRRYNVNKGKSAKKFRKQVSKTKVANLRSNPMRGGWRL [AGT915]
5. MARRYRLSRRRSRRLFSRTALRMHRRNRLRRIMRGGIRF [Chp4]
6. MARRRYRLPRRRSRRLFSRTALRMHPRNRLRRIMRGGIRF [Chp6]
7. MARSRRRMSKRSSRRSFRKYAKSHKKNFKARSMRGGIRL [Ecp2]
8. MKMRKRTDKRVFTRTAAKSKKVNIAPKIFRGGIRL [Unp1]

Solution:
1: 2; 2: 2; 3: 2; 4: 4; 5: 4; 6: 4; 7: 4; 8: 4

# batch size: 2; output 45 hr MIC per entry
1. MMKYRKKMSAKSSRKQFTKGAMKVKGKNFTKPMRGGIRL [Unp5]
2. MARRKKMKGKRDKRVFKQTANKTKAINISPKNMRGGTRL [Unp3]

Solution:
1. 8
2. 32

# batch size: 5; output 45 hr MIC per entry
1. MKRKPMSRKASQKTFKKNTGVQRMNHLNPRAMRGGIRL [Bdp1]
2. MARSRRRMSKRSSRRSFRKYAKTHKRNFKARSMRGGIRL [Ecp1]
3. MAKKMTKGKDRQVFRKTADRTKKLNVRPLLYRGGIRL [Chp11]
4. MSKKRSRMSRRRSKKLFSKTALRTKSVNTRPPMRGGFRF [Chp8]
5. MSLRRHKLSRKASKRIFRKGASRTKTLNTRATPMRGGFRI [Chp9]

Solution:
1: 32; 2: 4; 3: 32; 4: 4; 5: 4

Problem: Return reported 45 hr MIC; argument: MKPLKRKPVQKARSAAKFRRNVSTVKAANMAVKPMRGGWRF [Fen7875]
Solution: 4

----------
Provide the reported 45 hr MIC of each item.
system: M. intracellulare; assay: 45 hr MIC against M. intracellulare (NTM); format: cell-based, Mycobacterium intracellulare; settings: M. intracellulare (Cuttino and McCabe) Runyon ATCC 13950
Ends that are not written are not given here.

Some entries whose results are on file:
MKLTKSDIAYREALGLSTTDPLPAEIGMVTRRANRLKRPRKTARFR [Myo1] :: >64 mg/L
MRRKKMSRGKSKKLFRRTAKRVHRKNLRARPMRGGIRM [AVQ206] :: 4 mg/L
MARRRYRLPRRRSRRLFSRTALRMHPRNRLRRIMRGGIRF [Chp6] :: 0.5 mg/L

# batch size: 2; output 45 hr MIC per entry
1. MSKKRSRMSRRRSKKLFSKTALRTKSVNTRPPMRGGFRF [Chp8]
2. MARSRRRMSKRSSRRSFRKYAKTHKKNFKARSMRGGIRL [Ecp3]

Solution:
1. 4 mg/L
2. 8 mg/L

# batch size: 3; output 45 hr MIC per entry
1. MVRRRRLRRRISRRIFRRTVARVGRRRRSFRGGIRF [Chp1]
2. MRPVKRSRVNKARSAGKFRKQVGKTKMANLRSNPMRGGWRL [HH3930]
3. MRRKVKNTKRHQWRLTHSARSIKRANIMPSNPRGGRRF [Spi2]

Solution:
["4 mg/L", "16 mg/L", ">64 mg/L"]

----------
Provide the reported MIC of each item.
tested on: Enterobacter cloacae; assay: microbe, parasite or virus in culture; format: cell-based; conditions: Enterobacter cloacae ATCC 13047; CAA supplemented with human serum
Give bare numbers, in mg/L.

Some entries whose results are on file:
MRRKVKNTKRHQWRLTHSARSIKRANIMPSNPRGGRRF [Spi2] :: 4
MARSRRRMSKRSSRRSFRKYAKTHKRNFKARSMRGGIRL [Ecp1] :: 16
MSLRRHKLSRKASKRIFRKGASRTKTLNTRATPMRGGFRI [Chp9] :: 32
MAGKKMVSKGKDRQIFRKTADRTKKMNVRPLLYRGGIRL [Chp12] :: 32
MMKYRKKMSAKSSRKQFTKGAMKVKGKNFTKPMRGGIRL [Unp5] :: 4

# batch size: 4; output MIC per entry
1. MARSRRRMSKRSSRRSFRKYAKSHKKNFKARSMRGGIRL [Ecp2]
2. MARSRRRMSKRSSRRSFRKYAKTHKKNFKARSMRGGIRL [Ecp3]
3. MRRPRKMNYKKSKRMFSRTAARTHRKNSLRGSRPMRGGIRL [Gkh1]
4. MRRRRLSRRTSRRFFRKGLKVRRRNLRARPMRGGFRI [Unp2]

Solution:
16
4
32
16

# batch size: 5; output MIC per entry
1. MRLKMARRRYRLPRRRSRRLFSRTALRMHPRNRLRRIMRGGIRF [Chp2]
2. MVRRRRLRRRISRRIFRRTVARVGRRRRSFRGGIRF [Chp1]
3. MAKKMTKGKDRQVFRKTADRTKKLNVRPLLYRGGIRL [Chp11]
4. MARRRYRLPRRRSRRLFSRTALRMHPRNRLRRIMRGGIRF [Chp6]
5. MLTVWSDTPTIKRRKDMYRKRMSRKKSKKVFAKTAMKVNKRNHVKPMRGGYRI [Gkh3]

Solution:
1. 1
2. 4
3. 32
4. 2
5. 4

----------
tested on: Acinetobacter baumannii; test: microbe, parasite or virus in culture; assay type: cell-based; conditions: A. baumannii isolates (n per peptide in table)
Mark each entry MET if its MIC50 sits below 1 µg/mL, and NOT MET for all others.

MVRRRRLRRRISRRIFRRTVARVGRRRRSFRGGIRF [Chp1] :: NOT MET

Problem: Check if MIC50 falls below 1 µg/mL for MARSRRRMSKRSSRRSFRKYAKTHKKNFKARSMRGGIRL [Ecp3] .
Solution: MET

----------
test system: Escherichia coli; assay: microbe, parasite or virus in culture; format: cell-based; details: Escherichia coli ATCC 25922; CAA supplemented with human serum
recordedEndpoint: MIC (µg/mL)
Give bare numbers, in µg/mL.

Some entries whose results are on file:
MLTVWSDTPTIKRRKDMYRKRMSRKKSKKVFAKTAMKVNKRNHVKPMRGGYRI [Gkh3] :: 2
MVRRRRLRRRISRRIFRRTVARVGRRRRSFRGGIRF [Chp1] :: 2
MKRRKMTRKGSKRLFTATADKTKSINTAPPPMRGGIRL [Chp7] :: 8

Next, consider the following sequence.
Problem: Return reported MIC; argument: MRKRMSKRVDKKVFRRTAASAKKINIDPKIYRGGIRL [Osp1]
Solution: 0.5

Reference for the values: patent US20220401514A1
